We begin with a simple list: items and their reported koff.
# SYSTEM: human CD40 (human, UniProt P25942 21-193, limits assumed)
# Sequence (P25942 21-193 limits assumed): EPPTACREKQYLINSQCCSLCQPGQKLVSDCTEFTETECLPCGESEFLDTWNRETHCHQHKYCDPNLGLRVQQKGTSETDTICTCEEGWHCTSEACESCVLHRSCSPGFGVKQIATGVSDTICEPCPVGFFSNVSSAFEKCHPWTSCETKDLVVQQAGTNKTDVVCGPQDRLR
# RUN_DESCRIPTION: Octet
RECORDED_ENDPOINT: koff (s⁻¹)

- 37A6 (antibody, IgG4, V domains shown, also called 4865-1) VH: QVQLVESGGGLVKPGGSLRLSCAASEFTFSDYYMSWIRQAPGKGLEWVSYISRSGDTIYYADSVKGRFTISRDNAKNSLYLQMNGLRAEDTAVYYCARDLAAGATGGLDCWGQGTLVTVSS VL: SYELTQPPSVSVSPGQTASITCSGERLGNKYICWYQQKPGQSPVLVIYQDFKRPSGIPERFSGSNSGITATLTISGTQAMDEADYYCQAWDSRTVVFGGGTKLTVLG: 0.000672
- 33H9 (antibody, IgG4, V domains shown, also called 4897-1) VH: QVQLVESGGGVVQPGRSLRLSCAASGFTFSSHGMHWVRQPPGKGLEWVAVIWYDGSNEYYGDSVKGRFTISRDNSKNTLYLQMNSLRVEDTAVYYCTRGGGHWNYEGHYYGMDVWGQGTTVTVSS VL: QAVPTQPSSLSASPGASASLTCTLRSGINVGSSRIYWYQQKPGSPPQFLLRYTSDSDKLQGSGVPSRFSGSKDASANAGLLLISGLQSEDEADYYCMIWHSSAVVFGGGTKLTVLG: 0.000238
